# Test: Pharmacokinetic test in rats
# Assay type: in vivo, male SD rats
# Condition parameters: male, SD, rat, plasma, oral administration by gavage 10 mg/kg

{"Molecule": "C[C@@H](OCCc1c[nH]nn1)C(=O)N1Cc2cnc(NC3Cc4ccccc4C3)nc2C1 [Compound I-1R]", "AUC(0-t) [µg·h/mL]": 6.33}
{"Molecule": "C[C@@H](Cc1cnn[nH]1)OCC(=O)N1Cc2cnc(NC3Cc4ccccc4C3)nc2C1 [Compound I-2S]", "AUC(0-t) [µg·h/mL]": 3.69}

---

# maps each entry to its Remaining percentage (%) of compound after incubation for 30 min
# Test: Human liver microsome stability test
# Type: in vitro ADME
# Condition parameters: human liver microsomes, 30 min, 37° C., NADPH
Parameter measured: Remaining percentage (%) of compound after incubation for 30 min

{"Molecule": "C[C@H](Cc1cnn[nH]1)OCC(=O)N1Cc2cnc(NC3Cc4ccccc4C3)nc2C1", "Display unit": "%", "Experimental value": 63.7}
{"Molecule": "O=C(COCCc1cnn[nH]1)N1Cc2cnc(NC3Cc4ccccc4C3)nc2C1 [Control compound, reference compound]", "Display unit": "%", "Experimental value": 41.2}
{"Molecule": "C[C@@H](Cc1cnn[nH]1)OCC(=O)N1Cc2cnc(NC3Cc4ccccc4C3)nc2C1", "Display unit": "%", "Experimental value": 42.9}
{"Molecule": "C[C@@H](OCCc1c[nH]nn1)C(=O)N1Cc2cnc(NC3Cc4ccccc4C3)nc2C1", "Display unit": "%", "Experimental value": 86.0}
{"Molecule": "CC(OCCc1c[nH]nn1)C(=O)N1Cc2cnc(NC3Cc4ccccc4C3)nc2C1 (racemic)", "Display unit": "%", "Experimental value": 87.4}

---

# Test: Pharmacokinetic test in mice
# Format: in vivo, male ICR mice
# Condition parameters: male, ICR, mouse, plasma, intravenous administration 1 mg/kg

{"Smiles repr": "C[C@@H](OCCc1c[nH]nn1)C(=O)N1Cc2cnc(NC3Cc4ccccc4C3)nc2C1", "clearance": "34.8 mL/min/kg"}

---

# Test: Pharmacokinetic test in mice
# Type: in vivo, male ICR mice
# Condition parameters: male, ICR, mouse, plasma, intravenous administration 1 mg/kg

{"Smiles repr": "C[C@@H](OCCc1c[nH]nn1)C(=O)N1Cc2cnc(NC3Cc4ccccc4C3)nc2C1", "half-life": "22.2 min"}

---

Below: a set of entries, each annotated with reported solubility.
# Test: Thermodynamic solubility test
# Assay type: physicochemical
# Condition parameters: phosphate buffered saline, aqueous buffer, thermodynamic from solid; PBS, pH 7.4, thermodynamic; read-out: Dissolubility PBS (pH 7.4)
Parameter measured: solubility

{"Compound": "C[C@H](Cc1cnn[nH]1)OCC(=O)N1Cc2cnc(NC3Cc4ccccc4C3)nc2C1 [Compound I-2R]", "Experimental value": "107 µg/mL"}
{"Compound": "C[C@@H](OCCc1c[nH]nn1)C(=O)N1Cc2cnc(NC3Cc4ccccc4C3)nc2C1 [Compound I-1R]", "Experimental value": "20.4 µg/mL"}
{"Compound": "C[C@@H](Cc1cnn[nH]1)OCC(=O)N1Cc2cnc(NC3Cc4ccccc4C3)nc2C1 [Compound I-2S]", "Experimental value": "73.6 µg/mL"}

---

Cmax values, listed per item
# Test: Pharmacokinetic test in rats
# Format: in vivo, male SD rats
# Condition parameters: male, SD, rat, plasma, oral administration by gavage 10 mg/kg
Parameter measured: Cmax (ng/mL)

{"Smiles repr": "C[C@@H](OCCc1c[nH]nn1)C(=O)N1Cc2cnc(NC3Cc4ccccc4C3)nc2C1", "Experimental value": 3390}
{"Smiles repr": "C[C@@H](Cc1cnn[nH]1)OCC(=O)N1Cc2cnc(NC3Cc4ccccc4C3)nc2C1", "Experimental value": 2420}
